tested on: OV90; assay: Primary qHTS to identify gynecologic anti-cancer compounds using libraries of approved drugs and bioactive compounds (AID 1345084); conditions: Gynecologic cancer cell panel viability, ATPlite luminescence, 48 h; series mostly up to 57.5 µM; also: % is scaled to controls: 0 for no effect and ±100 for the full control effect; nearly all actives have a fitted effect of over 55% in size
Results filed as inconclusive are left out. Activity calls are given as the source filed them. Calls follow the shape of the dose curve; as a rule, active = well fitted cell-killing curve with a large enough effect; inconclusive = small, poorly fitted or top-dose-only effect, or effect the other way; inactive = flat fitted curve, though single readings scatter.
Endpoint: activity change, negative = cytotoxicity

Known activity change, negative = cytotoxicity results, listed for orientation:
1) Nc1ncnc2c1ncn2CCNCCCCCO
inactive
2) O=C(c1ccc2nccnc2c1)N1CCCCC1
inactive
3) CC1(C)CC[C@]2(C(=O)O[C@@H]3O[C@H](CO)[C@@H](O)[C@H](O)[C@H]3O)CC[C@]3(C)C(=CCC4[C@@]5(C)CC[C@H](O[C@@H]6O[C@H](C(=O)O)[C@@H](O)[C@H](O)[C@H]6O)[C@@](C)(CO)C5CC[C@]43C)C2C1 (some centres undefined)
8.98% [at 11.6 µM] (inactive)
4) O=C(O)Cc1ccc2oc(-c3ccc(NC(=O)/C=C/c4ccc(Br)cc4)c(F)c3)nc2c1
inactive
5) C[C@H]1[C@H](O)O[C@@H]2O[C@@]3(C)CC[C@H]4[C@H](C)CC[C@@H]1[C@@]24OO3
inactive

Enquiry: Can you share its activity change, negative = cytotoxicity? I mean this compound: C/C=C/c1ccc(O[C@@H]2O[C@H](CO)[C@@H](O)[C@H](O)[C@H]2O)c(OC)c1
Return: inactive

Enquiry: Can you share its activity change, negative = cytotoxicity? I mean this compound: O=C1N=C(N2CCOCC2)CN1c1ccc(Cl)cc1
Return: inactive

Enquiry: Can you share its activity change, negative = cytotoxicity? I mean this compound: O=C1C=CC(O)(/C=C/C(=O)OC[C@H]2O[C@@H](Oc3ccc(O)cc3)[C@H](O)[C@@H](O)[C@@H]2O)C=C1
Return: inactive

Enquiry: Can you share its activity change, negative = cytotoxicity? I mean this compound: COc1ccc(C(O)C(C)OC2OC(CO)C(O)C(O)C2O)cc1 (centres undefined)
Return: inactive
